Ref: patent US9586961B2

Target: JAK1 (Homo sapiens)
Construct: JAK1 (aa 850-1154) and TYK2 (aa 871-1187) are expressed with an N-terminally fused GST-tag; GST (N)
Sequence (P23458 850-1154): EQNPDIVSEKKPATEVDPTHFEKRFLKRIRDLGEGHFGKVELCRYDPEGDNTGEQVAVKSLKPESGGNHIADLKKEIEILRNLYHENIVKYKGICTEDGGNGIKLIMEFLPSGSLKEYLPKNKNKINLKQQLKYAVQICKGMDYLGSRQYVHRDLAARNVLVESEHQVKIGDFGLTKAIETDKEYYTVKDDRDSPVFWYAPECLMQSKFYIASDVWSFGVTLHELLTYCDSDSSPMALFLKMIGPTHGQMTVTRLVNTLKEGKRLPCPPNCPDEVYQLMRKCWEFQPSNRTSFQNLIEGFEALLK
Experiment: JAK1 kinase assay (HTRF, inhibition of phosphorylation of a synthetic peptide)
Conditions: catalytic domain aa 850-1154, GST-tag; 7 μM ATP (Km); read-out: JAK1 kinase inhibitory activity (EC50)
Procedure: JAK1, JAK2, JAK3 and TYK2 Kinase Assays: Human baculovirus-expressed JAK1, 2, 3 and TYK2 were purchased from Carna Biosciences, Inc. All four purified enzymes contain only the catalytic domain. […] Inhibition of phosphorylation of a synthetic peptide was measured in an HTRF-based assay using the TK substrate-Biotin from the CisbioHTRFKinEASE TK kit. […] The HTRF signal is read using an Envision plate reader.
MEASUREMENT NAME: EC50

molecule="Cc1cnccc1C(=O)N1CCCN(c2ncnc3[nH]ccc23)CC12CC2 [Example 138]" measurement_name=EC50 recorded_value="> 1000 nM"
molecule="Cc1cncc(C(=O)N2CCN(c3ncnc4[nH]ccc34)CC3(CC3)C2)n1 [Example 169]" measurement_name=EC50 recorded_value="> 1000 nM"
molecule="N#CCC(=O)N1CCN(c2ncnc3[nH]ccc23)CC2(CC2)C1 [Example 5]" measurement_name=EC50 recorded_value="< 100 nM"
molecule="O=C(c1ccc(O)nc1)N1CCN(c2ncnc3[nH]ccc23)CC2(CC2)C1 [Example 131]" measurement_name=EC50 recorded_value="100 to 1000 nM"
molecule="CCCc1csc(C(=O)N2CCN(c3ncnc4[nH]ccc34)CC3(CC3)C2)c1 [Example 78]" measurement_name=EC50 recorded_value="100 to 1000 nM"
molecule="O=C(c1ccc(S(=O)(=O)NCC2CCCO2)cc1)N1CCN(c2ncnc3[nH]ccc23)CC2(CC2)C1 (stereo not shown) [Example 70]" measurement_name=EC50 recorded_value="100 to 1000 nM"
molecule="N#Cc1ccc(CC(=O)N2CCN(c3ncnc4[nH]ccc34)CC3(CC3)C2)cc1 [Example 10]" measurement_name=EC50 recorded_value="< 100 nM"
molecule="CC(C(=O)N1CCN(c2ncnc3[nH]ccc23)CC2(CC2)C1)c1ccccc1 (stereo not shown) [Example 275]" measurement_name=EC50 recorded_value="100 to 1000 nM"
molecule="COc1cccc(C(=O)N2CCN(c3ncnc4[nH]ccc34)CC3(CC3)C2)c1OC [Example 2]" measurement_name=EC50 recorded_value="> 1000 nM"
molecule="O=C(CC1CCCC1)N1CCCN(c2ncnc3[nH]ccc23)CC12CC2 [Example 92]" measurement_name=EC50 recorded_value="< 100 nM"
molecule="Cc1cnc(C(=O)N2CCN(c3ncnc4[nH]ccc34)CC3(CC3)C2)s1 [Example 241]" measurement_name=EC50 recorded_value="100 to 1000 nM"
molecule="O=C(c1cnco1)N1CCN(c2ncnc3[nH]ccc23)CC2(CC2)C1 [Example 155]" measurement_name=EC50 recorded_value="100 to 1000 nM"
molecule="NS(=O)(=O)c1ccc(-c2ccc(C(=O)N3CCN(c4ncnc5[nH]ccc45)CC4(CC4)C3)o2)cc1 [Example 65]" measurement_name=EC50 recorded_value="< 100 nM"
molecule="Cc1nccnc1C(=O)N1CCN(c2ncnc3[nH]ccc23)CC2(CC2)C1 [Example 168]" measurement_name=EC50 recorded_value="> 1000 nM"
molecule="O=C(Cc1ccc(-c2nn[nH]n2)cc1)N1CCN(c2ncnc3[nH]ccc23)CC2(CC2)C1 [Example 77]" measurement_name=EC50 recorded_value="< 100 nM"
molecule="O=C(c1ccc[nH]1)N1CCCN(c2ncnc3[nH]ccc23)CC12CC2 [Example 255]" measurement_name=EC50 recorded_value="< 100 nM"
molecule="Cc1nocc1C(=O)N1CCN(c2ncnc3[nH]ccc23)CC2(CC2)C1 [Example 244]" measurement_name=EC50 recorded_value="100 to 1000 nM"
molecule="O=C(Cc1ccc(Cl)cc1Cl)N1CCN(c2ncnc3[nH]ccc23)CC2(CC2)C1 [Example 270]" measurement_name=EC50 recorded_value="100 to 1000 nM"
molecule="Cc1sncc1C(=O)N1CCN(c2ncnc3[nH]ccc23)CC2(CC2)C1 [Example 229]" measurement_name=EC50 recorded_value="100 to 1000 nM"
molecule="N#Cc1ccccc1CC(=O)N1CCN(c2ncnc3[nH]ccc23)CC2(CC2)C1 [Example 272]" measurement_name=EC50 recorded_value="100 to 1000 nM"
molecule="N#CC1(C(=O)N2CCN(c3ncnc4[nH]ccc34)CC3(CC3)C2)CCOCC1 [Example 41]" measurement_name=EC50 recorded_value="> 1000 nM"
molecule="N#Cc1cc(CC(=O)N2CCN(c3ncnc4[nH]ccc34)CC3(CC3)C2)ccc1F [Example 273]" measurement_name=EC50 recorded_value="100 to 1000 nM"
molecule="NS(=O)(=O)c1cc(C(=O)N2CCN(c3ncnc4[nH]ccc34)CC3(CC3)C2)cs1 [Example 75]" measurement_name=EC50 recorded_value="< 100 nM"
molecule="O=C(Cc1cncs1)N1CCN(c2ncnc3[nH]ccc23)CC2(CC2)C1 [Example 252]" measurement_name=EC50 recorded_value="100 to 1000 nM"
molecule="COCCNS(=O)(=O)c1ccc(C(=O)N2CCN(c3ncnc4[nH]ccc34)CC3(CC3)C2)cc1 [Example 74]" measurement_name=EC50 recorded_value="100 to 1000 nM"
molecule="O=C(c1cscn1)N1CCCN(c2ncnc3[nH]ccc23)CC12CC2 [Example 227]" measurement_name=EC50 recorded_value="100 to 1000 nM"
molecule="O=C(c1c[nH]nn1)N1CCN(c2ncnc3[nH]ccc23)CC2(CC2)C1 [Example 204]" measurement_name=EC50 recorded_value="100 to 1000 nM"
molecule="Cc1cncc(C(=O)N2CCCN(c3ncnc4[nH]ccc34)CC23CC3)n1 [Example 198]" measurement_name=EC50 recorded_value="100 to 1000 nM"
molecule="O=C(c1ccccc1F)N1CCCN(c2ncnc3[nH]ccc23)CC12CC2 [Example 112]" measurement_name=EC50 recorded_value="100 to 1000 nM"
molecule="Cc1ncccc1C(=O)N1CCCN(c2ncnc3[nH]ccc23)CC12CC2 [Example 136]" measurement_name=EC50 recorded_value="> 1000 nM"
molecule="N#CC1(C(=O)N2CCCN(c3ncnc4[nH]ccc34)CC23CC3)CC1 [Example 60]" measurement_name=EC50 recorded_value="100 to 1000 nM"
molecule="O=C(c1cnsc1)N1CCN(c2ncnc3[nH]ccc23)CC2(CC2)C1 [Example 210]" measurement_name=EC50 recorded_value="100 to 1000 nM"
molecule="O=C(c1ccno1)N1CCN(c2ncnc3[nH]ccc23)CC2(CC2)C1 [Example 177]" measurement_name=EC50 recorded_value="100 to 1000 nM"
molecule="O=C(N1CCN(c2ncnc3[nH]ccc23)CC2(CC2)C1)C1(c2ccccc2)CC1 [Example 260]" measurement_name=EC50 recorded_value="> 1000 nM"
